- EXPERIMENTAL_PROTOCOL: Flash foam generation test (Example 70)
- Format: physicochemical
- PROTOCOL_CONDITIONS: 2 h; 20 mg in 4 mL deionized water (10 wt % [sic]), 2 mL shaken 30 s in 15 mL tube, duplicate average
- Description: 20 mg of each surface-active composition for testing was dissolved in deionized water (4 mL) to give a 10 wt % solution, 2 mL was added to a 15 mL FALCON tube. Each falcon tube was secured in a holder before being vigorously shook for 30 seconds. The initial foam height and structure was noted. The foam height was then noted at 5 min, 10 min, 15 min, 30 min, 45 min, 1 hr and 2 hr after the initial measurement. The experiment was repeated in duplicate. […]
RECORDED_ENDPOINT: Volume of foam after given time

molecule="CCCCCCCCCCO[C@@H]1O[C@H](CO)[C@@H](O)[C@H](O)[C@H]1O [Decyl glucoside, reference compound]" recorded_endpoint="Volume of foam after given time" value="11.0 cm^3"
molecule="CCCCCCCCCCCCN(C(C)=O)C1O[C@H](CO)[C@@H](O[C@@H]2O[C@H](CO)[C@@H](O)[C@H](O)[C@H]2O)[C@H](O)[C@H]1O (stereo partly shown)" recorded_endpoint="Volume of foam after given time" value="2.5 cm^3"
molecule="CCCCCCCCCCN(C(C)=O)C1OC[C@@H](O)[C@H](O)[C@H]1O (stereo partly shown)" recorded_endpoint="Volume of foam after given time" value="2.0 cm^3"
molecule="CCCCCCCCCCCCOS(=O)(=O)[O-].[Na+] [Sodium dodecyl sulfate, reference compound]" recorded_endpoint="Volume of foam after given time" value="14.0 cm^3"

* * *

Time inspected by which the emulsion first appeared dispersed for assorted compounds
- EXPERIMENTAL_PROTOCOL: Water in oil emulsion stability test (Example 65)
- Format: physicochemical
- PROTOCOL_CONDITIONS: 0.5 mL water with 2 wt % substance + 1.5 mL sunflower oil, vortex 30 s, visual inspection
RECORDED_ENDPOINT: Time inspected by which the emulsion first appeared dispersed (h)

compound="CCCCCCCCCCCCO[C@@H]1O[C@H](CO)[C@@H](O)[C@H](O)[C@H]1O [Dodecyl Glucoside, reference compound]" operator== value=12
compound="O=C[C@H](O)[C@@H](O)[C@H](O)CO [Xylose, reference compound]" operator=< value=0.083
compound="CCCCCCCCCCCCOS(=O)(=O)[O-].[Na+] [Sodium dodecyl sulfate, reference compound]" operator== value=1
compound="CCCCCCCCCCCCN(C(C)=O)C1OC[C@@H](O)[C@H](O)[C@H]1O (some centres unmarked) [Example 13 composition, N-dodecyl N-acetyl xylosylamine]" operator== value=1
compound="CCCCCCCCCCO[C@@H]1O[C@H](CO)[C@@H](O)[C@H](O)[C@H]1O [Decyl glucoside, reference compound]" operator== value=24
compound="CCCCCCCCCCCCCCN(C(C)=O)C1OC[C@@H](O)[C@H](O)[C@H]1O (some centres unmarked) [Example 12 composition, N-tetradecyl N-acetyl xylosylamine]" operator== value=1
compound="CCCCCCCCN(C(C)=O)C1OC[C@@H](O)[C@H](O)[C@H]1O (some centres unmarked) [Example 14 composition, N-octyl N-acetyl xylosylamine]" operator== value=0.083
compound="CCCCCCCCCCN(C(C)=O)C1OC[C@@H](O)[C@H](O)[C@H]1O (some centres unmarked) [Example 11 composition, N-decyl N-acetyl xylosylamine]" operator== value=24
